# protein stability index per entry
B1: ATE1 (parent)
chain: YGSFHQQYWLDGKIIAVGVIDILP

# Variants of: B1
# Experiment notes: protein stability index of a GFP-peptide fusion (GPS, HEK-293T) (PSI 1-6); higher = more stable;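 note: lentivirally expressed fusions sorted by FACS into six bins by GFP to DsRed ratio, PSI derived from sequencing read proportions per bin multiplied by bin number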
# Recorded conditions: c terminus: a fixed tail appended
Give the figure by itself; no unit, no explanation.

YGSFHQQYNLDGKIIAVGVIDILP [W9N] = 1.9
YGSFHQQYWLDGKIAAVGVIDILP [I15A] = 2.57

Which value of protein stability index has been reported for YGSFHQQYWLDGKIMAVGVIDILP [I15M] in the records? 2.51

Which value of protein stability index has been reported for SGSFHQQYWLDGKIIAVGVIDILP [Y1S] in the records? 4.07

Which value of protein stability index has been reported for YGSFHQQYWLDGDIIAVGVIDILP [K13D] in the records? 2.19

Hello, the source for this data is the supplement of paper PMC10567573, in case you need it.
